Where these numbers come from: patent US10781183B2

A collection of compounds and their measured melting point
OBSERVATION TYPE: melting point

In [3]: df
Out[3]:
                              line_notation  observation_type  value_observed
0  NS(=O)(=O)c1ccc(NC2=CC(=O)c3ncncc3C2=O)cc1     melting point        > 320 °C
1  O=C1C(Nc2ccc(C3CCCCC3)cc2)=CC(=O)c2ncncc21     melting point          234 °C
2   O=C1C(Nc2cccc(B(O)O)c2)=CC(=O)c2ncncc21     melting point   208 to 210 °C
3  O=C1C(Nc2ccc(N3CCOCC3)cc2)=CC(=O)c2ncncc21     melting point   226 to 227 °C

----------
A collection of compounds and their measured melting point
OBSERVATION TYPE: melting point

>>> print(df.to_string())
                              line_notation  value_observed
0        COc1ccc(NC2=CC(=O)c3ncncc3C2=O)cc1          238 °C
1  O=C1C(Nc2ccc(-c3ccc(Cl)cc3)cc2)=CC(=O)c2ncncc21   292 to 293 °C
2  O=C1C(Nc2cccc(-c3ccccc3)c2)=CC(=O)c2ncncc21   199 to 200 °C
3  O=C1C(Nc2ccc3c(c2)Cc2ccccc2-3)=CC(=O)c2ncncc21   236 to 237 °C
4  COc1cc(NC2=CC(=O)c3ncncc3C2=O)cc(OC)c1OC   161 to 162 °C

----------
A collection of compounds and their measured melting point
OBSERVATION TYPE: melting point

>>> df
                                    compound  value_observed
 0  Cc1ccc(-c2ccc(NC3=CC(=O)c4ncncc4C3=O)cc2F)cc1   282 to 283 °C
 1  Nc1ccc(C(=O)NCCC[P+](c2ccccc2)(c2ccccc2)c2ccccc2)cc1.[Br-]   203 to 205 °C
 2  COc1ccc(-c2ccc(NC3=CC(=O)c4ncncc4C3=O)cc2)cc1   270 to 272 °C
 3                     O=C1C=CC(=O)c2ncncc21        > 320 °C
 4  Nc1ccc(-c2ccc(NC3=CC(=O)c4ncncc4C3=O)cc2)cc1        > 320 °C
 5  CCOC(=O)c1ccc(NC2=CC(=O)c3ncncc3C2=O)cc1   206 to 207 °C
 6   COC(=O)c1ccc(NC2=CC(=O)c3ncncc3C2=O)cc1   226 to 230 °C
 7  O=C1C(Nc2ccc(-c3cc(Cl)cc(Cl)c3)cc2)=CC(=O)c2ncncc21   260 to 261 °C
 8    NC(=O)c1ccc(NC2=CC(=O)c3ncncc3C2=O)cc1        > 320 °C
 9  O=C1C(Nc2ccc(-c3ccc(F)cc3)cc2)=CC(=O)c2ncncc21   285 to 289 °C
10  CCc1ccc(-c2ccc(NC3=CC(=O)c4ncncc4C3=O)cc2)cc1 [QD392]          247 °C
11  O=C1C(Nc2ccc(N3CCCCC3)cc2)=CC(=O)c2ncncc21          209 °C
12  O=C1C(Nc2cccc3c2-c2ccccc2C3)=CC(=O)c2ncncc21          217 °C
13  O=C1C(Nc2ccc(-c3ccccn3)cc2)=CC(=O)c2ncncc21          239 °C
14  O=C1C(Nc2ccc(Oc3ccccc3)cc2)=CC(=O)c2ncncc21   169 to 171 °C
